These data points were gathered from patent US11865110B2.

Exercise: for every item that follows, state its recorded microsomal CLint at 1 µM.
Experiment: Mouse liver microsome stability
Type: in vitro ADME, mouse (CD-1)
Conditions: pH 7.4; CD-1 mouse liver microsomes 0.5 mg/mL, NADPH, 37° C.; lower measurable bound 5
Numbers only, in µL/min/mg.

CC(C)(C)C(=O)n1nc(-c2cccn(CC(F)(F)C(=O)O)c2=O)cc1NCc1ccc(Cl)s1	9
CC(C)(C)C(=O)n1nc(-c2cccn(CCC(N)=O)c2=O)cc1NCc1ccc(Cl)s1	100
CC(C)(CO)C(=O)n1nc(-c2cccn(CCC(=O)O)c2=O)cc1NCc1ccc(Cl)s1	4

# microsomal CLint at 1 µM of COCCn1cccc(-c2cc(NCc3ccc(Cl)s3)n(C(=O)C(C)(C)C)n2)c1=O = 290

* * *

Assay: Rat pharmacokinetics
Assay type: in vivo
Details: Sprague-Dawley, plasma, SD rats, PO 5 mg/kg, Formulation A (90% Kolliphor HS15, 10% ethanol), read-out: PO AUC
Exercise: for every item that follows, state its recorded AUC.
Numbers only, in µg·h/mL.

CC(C)(C)C(=O)n1nc(-c2cccn(CC(=O)O)c2=O)cc1NCc1ccc(Cl)s1	2.3
CC(C)(C)C(=O)n1nc(-c2cccn(CCC(=O)O)c2=O)cc1NCc1ccc(Cl)s1	2.2

# AUC of O=C(O)CCn1cccc(-c2cc(NCc3ccc(Cl)s3)n(C(=O)c3ccoc3)n2)c1=O = 0.028

* * *

Assay: Rat pharmacokinetics
Format: in vivo
Conditions: Sprague-Dawley, plasma, SD rats, IV 1 mg/kg, read-out: IV AUC
Label 1 when AUC is strictly below 2000 ng·h/mL; at or above that, label -1.

CC(C)(N)Cn1cccc(-c2cc(NCc3ccc(Cl)s3)n(C(=O)c3ccoc3)n2)c1=O [Compound 9]	1
CC(C)(C)C(=O)n1nc(-c2cccn(CCCC(=O)O)c2=O)cc1NCc1ccc(Cl)s1 [Compound 5]	-1
CCC(C)(C)C(=O)n1nc(-c2cccn(CCC(=O)O)c2=O)cc1NCc1ccc(Cl)s1 [Compound 11]	-1
CC(C)(C)C(=O)n1nc(-c2cccn(CC(=O)O)c2=O)cc1NCc1ccc(Cl)s1 [Compound 4]	-1
CC(C)(C)C(=O)n1nc(-c2cccn(CCC(=O)O)c2=O)cc1NCc1ccc(Cl)s1 [Compound 1]	-1
O=C(O)CCn1cccc(-c2cc(NCc3ccc(Cl)s3)n(C(=O)c3ccoc3)n2)c1=O [Compound 12]	1

We now examine a further compound.
### Prompt Does the reported AUC of O=C(O)CCn1cccc(-c2cc(NCc3ccc(Cl)s3)[nH]n2)c1=O [Compound 2] stay below 2000 ng·h/mL?
### Response 1

* * *

Experiment: Rat plasma stability
Assay type: in vitro ADME
Conditions: Sprague-Dawley; SD rat plasma, 37° C., time points to 160 min; read-out: Rat Plasma Stability t1/2
Exercise: for every item that follows, state its recorded half-life at 20 µM.

Here's what some known entries look like.
CC(C)(C)C(=O)n1nc(-c2cccn(CC(=O)O)c2=O)cc1NCc1ccc(Cl)s1	3 h
CC(C)(N)Cn1cccc(-c2cc(NCc3ccc(Cl)s3)n(C(=O)c3ccoc3)n2)c1=O	1.13 h
O=C(O)CCn1cccc(-c2cc(NCc3ccc(Cl)s3)n(C(=O)c3ccoc3)n2)c1=O	3 h

// for each molecule below, give its half-life at 20 µM
1. CC(C)(C)C(=O)n1nc(-c2cccn(CCC(=O)O)c2=O)cc1NCc1ccc(Cl)s1
2. O=C(O)CCn1cccc(-c2cc(NCc3ccc(Cl)s3)[nH]n2)c1=O
3. CC(C)(C)C(=O)n1nc(-c2cccn(CCCC(=O)O)c2=O)cc1NCc1ccc(Cl)s1
4. CCC(C)(C)C(=O)n1nc(-c2cccn(CCC(=O)O)c2=O)cc1NCc1ccc(Cl)s1
5. CC(C)(C)C(=O)n1nc(-c2cccn(CCC(N)=O)c2=O)cc1NCc1ccc(Cl)s1
6. O=C(O)Cn1cccc(-c2cc(NCc3ccc(Cl)s3)[nH]n2)c1=O

### Response
1. 1.13 to 1.83 h
2. ≥ 5 h
3. 1.13 h
4. ≥ 5 h
5. 1.13 h
6. ≥ 5 h

* * *

Exercise: for every item that follows, state its recorded AUC.
Experiment: Mouse pharmacokinetics
Assay type: in vivo
Details: plasma, male CD-1 mice, PO single dose 5 mg/kg, read-out: PO AUC
Protocol: Mouse pharmacokinetic data were generated as follows. Compounds were administered intravenously (IV) as a single dose via tail vein or orally (PO) as a single dose via gastric gavage to male CD-1 mice with weights between 18 and 25 g. Nominal doses were 1 mg/kg and 5 mg/kg for IV and PO administration, respectively. […] Pharmacokinetic parameters are calculated from mean concentration values using a non-compartmental analysis as described below and as apparent to those of ordinary skill in the art. […]
Give bare numbers, in µg·h/mL.

CC(C)(C)C(=O)n1nc(-c2cccn(CC(=O)O)c2=O)cc1NCc1ccc(Cl)s1	15
CC(C)(C)C(=O)n1nc(-c2cccn(CCC(=O)O)c2=O)cc1NCc1ccc(Cl)s1	31

Here is another compound to look at.
# AUC of O=C(O)CCn1cccc(-c2cc(NCc3ccc(Cl)s3)[nH]n2)c1=O = 1.3

* * *

Exercise: for every item that follows, state its recorded AUC.
Assay: Mouse pharmacokinetics
Assay type: in vivo
Conditions: plasma, male CD-1 mice, IV single dose 1 mg/kg, read-out: IV AUC
Answers are plain numbers, in ng·h/mL.

CC(C)(C)C(=O)n1nc(-c2cccn(CCC(=O)O)c2=O)cc1NCc1ccc(Cl)s1 [Compound 1]	8200
O=C(O)CCn1cccc(-c2cc(NCc3ccc(Cl)s3)[nH]n2)c1=O [Compound 2]	850
CC(C)(C)C(=O)n1nc(-c2cccn(CCC(N)=O)c2=O)cc1NCc1ccc(Cl)s1 [Compound 8]	530
CC(C)(C)C(=O)n1nc(-c2cccn(CC(=O)O)c2=O)cc1NCc1ccc(Cl)s1 [Compound 4]	6200

// for each molecule below, give its AUC
1. O=C(O)CCn1cccc(-c2cc(NCc3ccc(Cl)s3)n(C(=O)c3ccoc3)n2)c1=O [Compound 12]
2. O=C(O)Cn1cccc(-c2cc(NCc3ccc(Cl)s3)[nH]n2)c1=O [Compound 3]

### Response
1: 1000; 2: 2200

# AUC of CCC(C)(C)C(=O)n1nc(-c2cccn(CCC(=O)O)c2=O)cc1NCc1ccc(Cl)s1 [Compound 11] = 3900

* * *

Experiment: Rat pharmacokinetics
Assay type: in vivo
Details: Sprague-Dawley, plasma, SD rats, PO 5 mg/kg, Formulation B (20% Labrasol, 80% phosphate buffer pH 6.8), read-out: PO AUC
Exercise: for every item that follows, state its recorded AUC.

CCC(C)(C)C(=O)n1nc(-c2cccn(CCC(=O)O)c2=O)cc1NCc1ccc(Cl)s1 [Compound 11]	2100 ng·h/mL

// for each compound below, give its AUC
1. O=C(O)CCn1cccc(-c2cc(NCc3ccc(Cl)s3)[nH]n2)c1=O [Compound 2]
2. CC(C)(N)Cn1cccc(-c2cc(NCc3ccc(Cl)s3)n(C(=O)c3ccoc3)n2)c1=O [Compound 9]
3. CC(C)(C)C(=O)n1nc(-c2cccn(CCCC(=O)O)c2=O)cc1NCc1ccc(Cl)s1 [Compound 5]
4. CC(C)(C)C(=O)n1nc(-c2cccn(CCC(N)=O)c2=O)cc1NCc1ccc(Cl)s1 [Compound 8]

### Response
["140 ng·h/mL", "73 ng·h/mL", "2100 ng·h/mL", "120 ng·h/mL"]

* * *

Assay: Rat liver microsome stability
Assay type: in vitro ADME
Conditions: Sprague-Dawley, pH 7.4; SD rat liver microsomes 0.5 mg/mL, NADPH, 37° C.; lower measurable bound 5
Protocol: In a 96-well Nunc™ plate, 1.5 μL of a 200 μM solution of the test compound in DMSO were placed in a well. This plate, the “Reaction Plate,” was then warmed to 37° C. in an oven. In a second 96-well Nunc™ plate, the “Quench Plate,” six wells were filled with 180 μL of an internal standard quench solution composed of 100 nM diclofenac in acetonitrile. These six wells correspond to the six time points for data collection: 0, 0.5, 5, 15, 30, and 60 minutes. […]
PARAMETER MEASURED: microsomal CLint at 1 µM

Here's what some known entries look like.
CC(C)(C)C(=O)n1nc(-c2cccn(CCC(=O)O)c2=O)cc1NCc1ccc(Cl)s1	≤ 5 µL/min/mg
O=C(O)Cn1cccc(-c2cc(NCc3ccc(Cl)s3)[nH]n2)c1=O	≤ 5 µL/min/mg
CC(C)(N)Cn1cccc(-c2cc(NCc3ccc(Cl)s3)n(C(=O)c3ccoc3)n2)c1=O	≤ 5 µL/min/mg

// for each compound below, give its microsomal CLint at 1 µM
1. CCC(C)(C)C(=O)n1nc(-c2cccn(CCC(=O)O)c2=O)cc1NCc1ccc(Cl)s1
2. O=C(O)CCn1cccc(-c2cc(NCc3ccc(Cl)s3)[nH]n2)c1=O

### Response
1. 14 µL/min/mg
2. ≤ 5 µL/min/mg

// for each compound below, give its microsomal CLint at 1 µM
1. CC(C)(C)C(=O)n1nc(-c2cccn(CC(=O)O)c2=O)cc1NCc1ccc(Cl)s1
2. CC(C)(C)C(=O)n1nc(-c2cccn(CCCC(=O)O)c2=O)cc1NCc1ccc(Cl)s1

### Response
["≤ 5 µL/min/mg", "10 µL/min/mg"]
